Species on record: Homo sapiens
test: Liver toxicity in human assessed as induction of drug-induced liver injury by measuring severity class index
reported.metric: DILI_severity_class
Give your answer as a number; write no unit.

// below: answered molecules
Nc1nc2[nH]cc(CCc3ccc(C(=O)N[C@@H](CCC(=O)O)C(=O)O)cc3)c2c(=O)[nH]1 [PEMETREXED]
3
CO/N=C1\CN(c2nc3c(cc2F)c(=O)c(C(=O)O)cn3C2CC2)CC1CN (stereo not drawn) [GEMIFLOXACIN]
3
CC(C)(C)NCC(O)COc1cccc2c1CC(O)C(O)C2 (stereo not drawn) [NADOLOL]
3
Cc1cnc(NC(=O)C2=C(O)c3ccccc3S(=O)(=O)N2C)s1 [MELOXICAM]
3
CC(C)(O/N=C(\C(=O)N[C@@H]1C(=O)N2C(C(=O)[O-])=C(C[n+]3ccccc3)CS[C@H]12)c1csc(N)n1)C(=O)O [CEFTAZIDIME]
3

### Prompt Give DILI_severity_class for CC[C@@H](CO)NCCN[C@@H](CC)CO [ETHAMBUTOL]
### Response 8

### Prompt For the molecule COc1cc(C)c(/C=C/C(C)=C/C=C/C(C)=C/C(=O)O)c(C)c1C [ACITRETIN] , give its reported DILI_severity_class.
### Response 5

### Prompt Recall and state the measured DILI_severity_class for CO/N=C(\C(=O)N[C@@H]1C(=O)N2C(C(=O)O)=C(CSc3nc(=O)c(=O)[nH]n3C)CS[C@H]12)c1csc(N)n1 [CEFTRIAXONE] .
### Response 4

---

Species: Homo sapiens
test: Liver toxicity in human assessed as induction of drug-induced liver injury by measuring verified drug-induced liver injury concern status
reported.metric: DILI_Concern

Some molecules with recorded DILI_Concern:
O=C(O)CN(CCN(CC(=O)O)CC(=O)O)CC(=O)O [EDETIC ACID]
Ambiguous-Dili-Concern
NC(=O)NS(=O)(=O)c1ccc(N)cc1 [SULFACARBAMIDE]
Most-Dili-Concern
O=C(NCC1CCCCN1)c1cc(OCC(F)(F)F)ccc1OCC(F)(F)F (stereo unspecified) [FLECAINIDE]
Less-Dili-Concern
O.O=P(O)(O)C(O)(Cn1ccnc1)P(=O)(O)O [ZOLEDRONIC ACID]
Less-Dili-Concern
C=CCN1CC[C@]23c4c5ccc(O)c4O[C@H]2C(=O)CC[C@@]3(O)[C@H]1C5 [NALOXONE]
No-Dili-Concern

### Prompt Supply measured DILI_Concern of C[C@]12C=CC(=O)C=C1CC[C@@H]1[C@@H]2[C@@H](O)C[C@@]2(C)[C@H]1CC[C@]2(O)C(=O)CO [PREDNISOLONE] in your reply.
### Response Less-Dili-Concern

### Prompt Return value of DILI_Concern for input O=C(c1ccccc1)c1ccc2n1CCC2C(=O)O (stereo unspecified) [KETOROLAC] , no commentary.
### Response Less-Dili-Concern

### Prompt Find the measured DILI_Concern of Cc1onc(-c2ccccc2Cl)c1C(=O)N[C@@H]1C(=O)N2[C@@H]1SC(C)(C)[C@@H]2C(=O)O [CLOXACILLIN] and report it.
### Response Less-Dili-Concern

### Prompt Check the records and state DILI_Concern for Nc1nc(=O)c2c([nH]1)NCC(CNc1ccc(C(=O)N[C@@H](CCC(=O)[O-])C(=O)[O-])cc1)N2C=O.[Ca+2] (stereo partly specified) [LEUCOVORIN CALCIUM]
### Response No-Dili-Concern

### Prompt Supply recorded DILI_Concern for CC(=O)NCCCS(=O)(=O)O [ACAMPROSATE] here.
### Response Less-Dili-Concern

### Prompt Tell me its DILI_Concern given CCCNC(=O)NS(=O)(=O)c1ccc(Cl)cc1 [CHLORPROPAMIDE] as the entry.
### Response Less-Dili-Concern

### Prompt Given CO/N=C(\C(=O)N[C@@H]1C(=O)N2C(C(=O)O)=CCS[C@H]12)c1csc(N)n1 [CEFTIZOXIME] , respond with its DILI_Concern.
### Response Ambiguous-Dili-Concern

### Prompt Return DILI_Concern for the following molecule: NS(=O)(=O)c1cc(C2(O)NC(=O)c3ccccc32)ccc1Cl (stereo unspecified) [CHLORTHALIDONE]
### Response Ambiguous-Dili-Concern

### Prompt Please report the measured DILI_Concern for CC(=O)NO [ACETOHYDROXAMIC ACID]
### Response Ambiguous-Dili-Concern

### Prompt Report measured DILI_Concern; entry is Cc1nnc(NS(=O)(=O)c2ccc(N)cc2)s1 [SULFAMETHIZOLE]
### Response Less-Dili-Concern
